Molecular target: T1, soluble human CD3 epsilon chain (human, UniProt P07766 23-126)
T1 construct: also called CD3ε
T1 sequence (P07766 23-126 limits assumed): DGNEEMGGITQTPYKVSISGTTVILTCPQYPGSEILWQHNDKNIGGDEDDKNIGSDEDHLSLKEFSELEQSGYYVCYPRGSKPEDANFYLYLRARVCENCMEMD
Test: SPR
pKd reference
Here pKd is given on a logarithmic scale as minus log10 of the concentration in mol/L.

Task item: What measured pKd goes with TR01H040-E22Hh/none-Hi-Kn010G3/L0241-k0 (antibody, V domains shown, one-arm) VH: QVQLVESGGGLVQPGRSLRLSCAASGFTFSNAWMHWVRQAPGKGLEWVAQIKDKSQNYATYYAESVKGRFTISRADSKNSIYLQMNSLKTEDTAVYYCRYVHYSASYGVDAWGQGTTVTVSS VL: DIVMTQSPLSLPVTPGEPASISCRSSESPVHSNRNTYLHWYQQKPGQAPRLLIYKVSNRFWGVPDRFSGSGSGTDFTLKISRVEAEDVGVYYCYQGTQVPYTFGQGTKLEIK ?
Reply: 8.46

Now look at this one.
Task item: Give its pKd value. Item: TR01H040-E22Hh/none-Hi-Kn010G3/L0231-k0 (antibody, V domains shown, one-arm) VH: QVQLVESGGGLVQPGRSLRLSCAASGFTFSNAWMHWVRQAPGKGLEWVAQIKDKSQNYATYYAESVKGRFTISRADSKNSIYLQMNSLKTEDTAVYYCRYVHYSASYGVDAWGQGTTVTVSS VL: DIVMTQSPLSLPVTPGEPASISCRSSQSPVHSNRNTYIHWYQQKPGQAPRLLIYKVSNRFSGVPDRFSGSGSGTDFTLKISRVEAEDVGVYYCYQGTQWPYTFGQGTKLEIK
Reply: 8.11
